Item-by-item account of protein stability index
B1: ZBTB22 (parent)
chain: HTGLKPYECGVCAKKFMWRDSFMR

Variants of: B1
assay.name: protein stability index of a GFP-peptide fusion (GPS, HEK-293T) (PSI 1-6); higher = more stable;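 further: lentivirally expressed fusions sorted by FACS into six bins by GFP to DsRed ratio, PSI derived from sequencing read proportions per bin multiplied by bin number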
cond: c terminus: a fixed tail appended

For orientation, consider the following solved cases.
Give protein stability index for the following variant: HTGLRPYECGVCAKKFMWRDSFMR 2.38

Give protein stability index for the following variant: HTGLKPYECGVCAKKFMWRISFMR 2.1

Give protein stability index for the following variant: HTGLKPYECGVCAKNFMWRDSFMR 2.26

Give protein stability index for the following variant: HTGLKPYECGVCAKKFWWRDSFMR 2.45

Give protein stability index for the following variant: HTGLKPYECGVCAKKFKWRDSFMR 1.27

More entries:
Give protein stability index for the following variant: HTGLKDYECGVCAKKFMWRDSFMR 1.82

Give protein stability index for the following variant: HTGLKPYECGVCAKKFMWRDSTMR 1.74

Give protein stability index for the following variant: HGGLKPYECGVCAKKFMWRDSFMR 1.74

Give protein stability index for the following variant: HTGLKVYECGVCAKKFMWRDSFMR 1.1
